Every entry's value here was drawn from the Human Domainome abundance scans (Beltran et al. 2025).

B1: Ankyrin-3, residues 4094 to 4171; numbered along this chain, Q12955 (parent)
chain: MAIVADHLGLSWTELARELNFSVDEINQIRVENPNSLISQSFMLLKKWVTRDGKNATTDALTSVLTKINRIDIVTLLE

Variants of: B1
Assay: abundance fitness (aPCA) (normalised: wild type 0, dead -1); higher = more abundant; growth selection in yeast, the domain comes from the species named
Conditions: Homo sapiens
PROPERTY_NAME: abundance fitness
Note: the reply should be a number with no unit written.

See these solved cases before continuing.
| MUTATION_ANNOTATION | abundance fitness |
| --- | --- |
| P34D | -0.268 |
| V49K | -0.093 |
| W12R | -0.844 |
| T58L | -0.002 |

# evaluate next
Exercise: // fetch abundance fitness given entry I68W
Solution: -0.878
